Listed next: entries and their corresponding inhibition at 1 µM.
- Target System: COX-1 (Homo sapiens, UniProt P23219)
- Construct: host or cells: U-937 human lymphoma cells
- Sequence (P23219 24-599): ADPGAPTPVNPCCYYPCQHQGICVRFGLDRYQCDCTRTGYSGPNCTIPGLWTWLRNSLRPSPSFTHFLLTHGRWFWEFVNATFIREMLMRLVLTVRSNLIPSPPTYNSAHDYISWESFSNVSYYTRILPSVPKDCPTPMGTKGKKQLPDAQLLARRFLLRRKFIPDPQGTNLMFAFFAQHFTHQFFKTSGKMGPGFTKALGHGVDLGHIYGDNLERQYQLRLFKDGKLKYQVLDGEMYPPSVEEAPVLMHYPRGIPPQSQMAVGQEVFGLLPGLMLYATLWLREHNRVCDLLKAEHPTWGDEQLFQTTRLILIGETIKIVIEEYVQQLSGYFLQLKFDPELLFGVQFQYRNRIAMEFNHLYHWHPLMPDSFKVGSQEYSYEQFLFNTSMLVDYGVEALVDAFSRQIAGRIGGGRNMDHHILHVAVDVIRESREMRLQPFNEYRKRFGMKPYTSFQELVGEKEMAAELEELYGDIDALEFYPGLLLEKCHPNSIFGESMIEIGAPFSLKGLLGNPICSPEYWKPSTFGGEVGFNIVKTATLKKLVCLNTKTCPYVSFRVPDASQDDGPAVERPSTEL
- Experiment Description: Assay for the COX-1 inhibitory activity using U-937 (PGE2 inhibition)
- Format: cell-based
- Condition Info: 1 μM test compound; U-937 human lymphoma cells; PGE2 inhibition vs DMSO; read-out: Cyclooxygenase (COX) Inhibition (%) COX-1 (1 μM)
- Experimental: The collected cells were diluted with HBSS (×1, Hank's balanced salt solution) to a concentration of 1×10^6 cells/ml. 1 ml of the dilute cell solution was placed into each well of 12-well plates. […] The concentration of PGE2 in the collected cells and the supernatant was quantified by means of a monoclonal kit (Cayman Chemicals). The percentages of PGE2 inhibition in a group of the test compound-treated cells in relation to a group of the DMSO-treated cells were calculated. […]
Readout Type: inhibition at 1 µM (%)

>>> observed_result("CS(=O)(=O)c1ccc(-n2nc(C(F)(F)F)nc2-c2ccc(Cl)cc2)cc1")
38.8
>>> observed_result("CS(=O)(=O)c1ccc(-n2nc(C(F)(F)F)nc2-c2ccncc2)cc1")
16.7
>>> observed_result("COc1ccc(-c2nc(C(F)(F)F)nn2-c2ccc(S(N)(=O)=O)cc2)cc1")
34.6
>>> observed_result("CS(=O)(=O)c1ccc(-n2nc(C(F)(F)F)nc2-c2ccccc2)cc1")
29.2
>>> observed_result("COc1ccc(-c2nc(C(F)(F)F)nn2-c2ccc(S(C)(=O)=O)nc2)cc1")
28.8
